target: T1, PSMA Fab (SEQ ID NOs: 19, 20) (biotinylated (site not stated)); test: clonal phage ELISA on captured biotinylated PSMA Fab, anti-M13-HRP detection, competitor: PSMA antigen pre-incubated
T1 construct: In the phage ELISA the biotinylated PSMA Fab was captured on neutravidin coated plates; also called Anti-PSMA Fab; 006 PSMA Fab
Reported phage binding ELISA signal is given for each of the following binders.

Binder: VTMKCQPMWMCQGL [Phage-3642]
phage binding ELISA signal: 0.0738
--
Binder: FPAMCKPSWMCTGF [Phage-3640]
phage binding ELISA signal: 0.082
--
Binder: PNILCKPQWMCAGF [Phage-3644]
phage binding ELISA signal: 0.0825
--
Binder: EVAMCKPLWMCSGF [Phage-3635]
phage binding ELISA signal: 0.069
--
Binder: YPPLCVPMWMCNGF [Phage-3639]
phage binding ELISA signal: 0.107
--
Binder: LVNYCIPPWMCAGF [Phage-3631]
phage binding ELISA signal: 0.093
--
Binder: VHQLCIPVWMCSGF [Phage-3638]
phage binding ELISA signal: 0.0996
--
Binder: ELILCRPSWMCTGL [Phage-3632]
phage binding ELISA signal: 0.0672
--
Binder: VEPLCRPTWMCMSL [Phage-3636]
phage binding ELISA signal: 0.0766
--
Binder: SHALCRPAWMCMGL [Phage-3633]
phage binding ELISA signal: 0.0783
--
Binder: AEVKCIPTWMCTGF [Phage-3637]
phage binding ELISA signal: 0.079
--
Binder: GTTWCVPTWMCEGL [Phage-3634]
phage binding ELISA signal: 0.077
--
Binder: SNMVCIPSWMCNGF [Phage-3641]
phage binding ELISA signal: 0.0754
--
Binder: ADRVCKPAWMCDLF [Phage-3643]
phage binding ELISA signal: 0.0527
